# Test system: COLO 205 colon
# PROTOCOL: NCI-60 one-dose screen, 48 h (100 = growth as untreated, 0 = no growth, -100 = all killed)
# CONDITION_NOTES: 10 µM
# Method: Cells are grown in 96 well plates and exposed to the test compound for 48 hours. Compounds are tested at a single concentration, which is 10^-5 M for most compounds. The reported endpoint is percent growth (GI% or GIPRCNT), where numbers from 0 - 100% represent growth inhibition, and numbers from -100% - 0 represent cell death. For example, a value of 40 represents 60% growth inhibition. A value of 0 means no net growth occurred over the course of the experiment. […]
This is part of a sample that, as a whole, favours compounds with a hit. Of some 83,000 tested, about 20% had one in any assay.
Consider the cut-off 60%. If the recorded growth is strictly smaller, the label is yes (1); if not, the label is no (0).

> print(dat)
                                smiles.text  category
1  CN1CCN(c2ccc(Nc3nc(NCCCNC(=O)c4ccc(Cl)cc4)c4sccc4n3)cc2)CC1    no (0)
2  O=C(Nc1nc2ccc([N+](=O)[O-])cc2s1)Nc1ccccc1I   yes (1)
3  Cc1cc(=O)oc2cc(OCCCCOc3ccc(/C=C/C(=O)Nc4ccccc4[N+](=O)[O-])cc3)ccc12    no (0)
4  CN(C)c1ccc(/C=C/c2nc3ccccc3c(=O)n2CC(=O)Nc2ccc(Cl)cc2)cc1   yes (1)

Exercise: Regarding "COC(=O)c1c(C(=O)OC)c2n(c1C)[C@@H]([C@@H](C)[C@H]1CC[C@H]3[C@@H]4CCC5=CC(=O)CC[C@]5(C)[C@H]4CC[C@]13C)SC2" , kindly confirm whether its growth is beneath 60%.
Key: yes (1)

Exercise: Regarding "Cc1ccc(-c2cc(C(=O)N=Nc3c(O)[nH]c4ccc(Br)cc34)c3ccccc3n2)cc1" , kindly confirm whether its growth is beneath 60%.
Key: no (0)

Exercise: Regarding "COc1ccc(N(C)c2cc(C#N)nc3ccccc23)cc1N" , kindly confirm whether its growth is beneath 60%.
Key: yes (1)

###

# Test system: SF-268 CNS
# PROTOCOL: NCI-60 one-dose screen, 48 h (100 = growth as untreated, 0 = no growth, -100 = all killed)
# CONDITION_NOTES: 10 µM
About 83,000 compounds went through this panel and 20% of them were active in at least one assay; those are over-represented in the sample as a whole.
PROPERTY_LABEL: growth (%)
Value expressed in %; do not type the unit.

> print(dat)
                                smiles.text  unit.of.measurement  observed
1  COc1ccc2cc([C@H](C)C(=O)NCc3ccccc3)ccc2c1                    %      60.2

Exercise: Return reported growth for target or system SF-268 CNS, item "O=c1[nH]c2ccc(Cl)cc2cc1CSc1ccc(Nc2nccc(-c3ccc(Cl)cc3)n2)cc1" .
Key: 58.5

Exercise: Return reported growth for target or system SF-268 CNS, item "Cc1ccc(-c2nc3ccc(C(=O)N=Nc4c(O)[nH]c5ccc([N+](=O)[O-])cc45)cc3[nH]2)cc1" .
Key: 60.1

Exercise: Return reported growth for target or system SF-268 CNS, item "CCN1CCN(Cc2ccc(C(=O)Nc3cccc(-c4cn(-c5ccc6oc(=O)ccc6c5)nn4)c3)cc2C(F)(F)F)CC1" .
Key: -32.5

Exercise: Return reported growth for target or system SF-268 CNS, item "Clc1cccc(N/N=C/c2c[nH]c3ccccc23)n1" .
Key: 19.9

Exercise: Return reported growth for target or system SF-268 CNS, item "N#Cc1ccc(NC(=O)CSc2ccc(-c3ccc(Br)cc3)nn2)cc1" .
Key: 62.6

###

# Test system: SF-295 CNS
# PROTOCOL: NCI-60 one-dose screen, 48 h (100 = growth as untreated, 0 = no growth, -100 = all killed)
# CONDITION_NOTES: 10 µM
Compounds without any hit were thinned out: in the full panel of roughly 83,000, 20% have a hit.
Kindly return Satisfied if reported growth is no lower than 30%; return Not satisfied if it is lower.

COMPOUND	CATEGORY
Cc1ccc(/C=C/C(=O)c2ccc(NC(=O)CSc3nnc(-c4c[nH]c5ccccc45)n3-c3ccccc3)cc2)cc1	Satisfied

Exercise: Answer whether growth of "CN1CCCN(Cc2ccc(C(=O)Nc3cccc(Nc4ccc5c(O)cccc5n4)c3)cc2C(F)(F)F)CC1" is greater than or equal to 30%.
Key: Not satisfied

Exercise: Answer whether growth of "CC1(C)CC[C@]2(C(=O)O)CC[C@]3(C)C(=CC[C@@H]4[C@@]5(C)C/C(=C/c6ccncc6)[C@H](O)C(C)(C)[C@@H]5CC[C@]43C)[C@@H]2C1" is greater than or equal to 30%.
Key: Not satisfied

Exercise: Answer whether growth of "O=C1c2ccccc2C(=O)c2c1c(C(=O)c1ccc(Cl)cc1)n1c2ccc2c3ccccc3ccc21" is greater than or equal to 30%.
Key: Satisfied

Exercise: Answer whether growth of "Cc1ccc(/C=C(\C#N)n2nnc3c(F)cccc32)cc1" is greater than or equal to 30%.
Key: Not satisfied

Exercise: Answer whether growth of "CCCCSc1nc(Nc2ccc(/C(C)=N/NC(N)=S)cc2)c(C#N)c(-c2ccccc2)n1" is greater than or equal to 30%.
Key: Not satisfied

###

# Test system: U251 CNS
# PROTOCOL: NCI-60 one-dose screen, 48 h (100 = growth as untreated, 0 = no growth, -100 = all killed)
# CONDITION_NOTES: 10 µM
Compounds without any hit were thinned out: in the full panel of roughly 83,000, 20% have a hit.
Kindly return 1 if reported growth is no lower than 40%; return -1 if it is lower.

Known results for molecules:
MOLECULE	MEASURED_TARGET	CATEGORY
CN1CCN(c2ccc(C(=O)/C=C/c3ccc(C#N)cc3)cc2)CC1	U251 CNS	1
CN1C(=O)N(C)C2SC(N/N=C/c3ccc(F)cc3)=NC21 (stereo not given)	U251 CNS	-1
CN1CCCN(Cc2ccc(C(=O)Nc3cccc(Nc4ccc5c(O)cccc5n4)c3)cc2C(F)(F)F)CC1	U251 CNS	-1
O=C(CNc1nc(-c2ccccc2)cs1)Nc1ccc(Cl)cc1[N+](=O)[O-]	U251 CNS	-1

Exercise: Answer whether growth of COc1ccc(C2N(c3ccc(Br)cc3)N=C(C(C)=O)N2[C@H]2[C@H](OC(C)=O)O[C@H](COC(C)=O)[C@@H](OC(C)=O)[C@@H]2OC(C)=O)cc1 (stereo not given in full) is greater than or equal to 40%.
Key: 1

###

# Tested on: SF-539 CNS
# PROTOCOL: NCI-60 one-dose screen, 48 h (100 = growth as untreated, 0 = no growth, -100 = all killed)
# CONDITION_NOTES: 10 µM
About 83,000 compounds went through this panel and 20% of them were active in at least one assay; those are over-represented in the sample as a whole.
Kindly return t if reported growth is no lower than 50%; return f if it is lower.

Known results for compounds:
> print(dat)
                                   compound  category
1  COc1ccc(-c2cc(-c3cc(C(=O)c4ccc(Br)cc4)n4ccc(C)cc34)nc(N)c2C#N)cc1         f
2  COc1ccc(C(=O)/C=C/c2cc(C(F)(F)F)cc(C(F)(F)F)c2)cc1S(N)(=O)=O         f
3  CCCCCCCCCCCCCCCCCCCC(=O)NCCc1c[nH]c2ccc(OC(=O)CCCC(=O)OCCOOCCOOCCOOCCOOCCOOCCOOCCOOCCOOCCOOCCOOCCOOCCOC)cc12         f
4  Nc1nnc(-c2c[nH]c3ccc(F)cc23)c(-c2c[nH]c3ncccc23)n1         f
5  COc1cc2c(cc1OC)/C(=C\c1sc(Nc3ccc(O)cc3)nc1O)C(C(=O)O)=N2         f

Exercise: Answer whether growth of COc1ccc([C@H]2C(C(=O)c3ccc(Cl)cc3)C3(N[C@@H]2c2ccccc2)C(=O)Nc2ccc(Br)cc23)cc1 (some centres undefined) is greater than or equal to 50%.
Key: f

Exercise: Answer whether growth of C=C1CCC2C3(C)COC(c4c(F)cccc4F)OC3CCC2(C)C1CC(O)C1=CCOC1=O (centres undefined) is greater than or equal to 50%.
Key: t

Exercise: Answer whether growth of "Clc1ccc2c(N/N=C/c3c[nH]c4ccc(Br)cc34)ccnc2c1" is greater than or equal to 50%.
Key: f

Exercise: Answer whether growth of "C=C(c1ccc(OC)c(N)c1)c1cc(C)nc2ccccc12" is greater than or equal to 50%.
Key: f
